Assayed Target: human CD40 (human, UniProt P25942 21-193, limits assumed)
Sequence (P25942 21-193 limits assumed): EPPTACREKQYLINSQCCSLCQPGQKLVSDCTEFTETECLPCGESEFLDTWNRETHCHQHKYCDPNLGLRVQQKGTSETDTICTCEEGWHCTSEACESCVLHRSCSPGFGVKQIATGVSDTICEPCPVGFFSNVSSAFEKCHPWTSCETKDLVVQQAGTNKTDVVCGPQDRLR
Method Description: Octet
Measure Name: Kd (nM)
One number for each entry, in nM.

Please review the following examples before continuing.
35F11 (antibody, IgG4, V domains shown, also called 4868-1) VH: QVQLVESGGGVVQPGRSLRLSCAASGFTLSSYGMHWVRQAPGKGLEWVAVIWYDGSNKYYADSVKGRVTISRDNSKNTLYLQMNSLRAEDTAVYYCTRDGRNYVYFDNWGQGTLVTVSS VL: QSALTQPRSVSGSPGQSVTISCTGTSSDVGGYIFVSWYQQHPGKAPKLMIYDVSKRPSGVPDRFSGSKSVNTASLTISGLQAEDETDYYCCSYAGNYTYVFGTGTKVTVLG :: 0.55
39C2 (antibody, IgG4, V domains shown, also called 4887-1) VH: QVQLVQSGTEVKKPGASVKVSCKASGYTFPGYYMHWVRQAPGQGLEWMGWINPDSGGTKYTQKFQGRVTLTRDASVSTAYIDLNRLRSDDTAVYYCARERCRTTNCYLDYWGQGSLVTVSS VL: QSALTQPASVSGSPGQSITISCTGTSSDVGNYNLVSWYQQHPGKAPKLMIYEVNRRPSGVSNRFSGSKSGNTASLTISGLQAEDEAEYYCCSYAGRDTFVVFGGGTKLTVLG :: 1.02
33H6 (antibody, IgG4, V domains shown, also called 4883-1) VH: QVQLVQSGAEVKKPGASVKVSCKASGYTFPGYYMYWLRQAPGQGLEWMGWINPDSGDTNYAQKFQGRVTMTRDTSISTAFMELSRLRSDDTAVYYCAREKPRYFDSFYYYLMDVWGQGTTVTVSS VL: DIQMTQSPSSLSASVGDRVTITCRAGQNISRHLNWYQQNPGKAPKVLIHPASSLPSGVPSRFSGSGSGTDFSLTISSLQPEDFGTYFCQQSYSTPPTFGGGTKVELKR :: 1.34

Now let's try a different one.
Prompt line: Param item = 30A12 (antibody, IgG4, V domains shown, also called 4878-1) VH: EVQLLESGGGLVQPGGSLRLSCAASGFTFSRNAMSWVRQAPGKGLEWVSATGGSGISTYYADSVKGRFTISRDNSKNTLYLQMNSLRAEDTAVYYCARGYSNSWWYFDYWGQGTLVTVSS VL: QSALTQPASVSGSPGQSITISCTGTSSDVGNYNLVSWYQQHPGKAPKLMIFEVNQRPSGVSNRFSGSKSGTTASLTISGLQAADEADYFCCSYTTSSTYVIFGGGTKLTVLG ; retrieve measured Kd.
Response line: 0.69

Source listed as patent US20260109776A1.
